tested on: U2-OS; experiment: Inhibition of cell growth, MTT assay, U2-OS; assay type: cell-based; settings: Homo sapiens, U2OS
pIC50: −log10 of the molar value.
Assign True to entries whose pIC50 meets or exceeds 5; assign False to the rest.

{"CHEMICAL_STRUCTURE": "Nc1nc(Nc2ccc(S(N)(=O)=O)cc2)sc1C(=O)c1c(F)cccc1C(F)(F)F", "CLASS_ASSIGNMENT": "True"}
{"CHEMICAL_STRUCTURE": "Nc1nc(Nc2ccc(N3CCNC(=O)C3)cc2)sc1C(=O)c1c(F)cccc1F", "CLASS_ASSIGNMENT": "True"}

Next item in the queue.
q: Hi, just wondering whether CC(=O)Nc1ccc(Cl)c(C(=O)c2sc(Nc3ccc4nc[nH]c4c3)nc2N)c1Cl shows pIC50 of 5 or higher.
a: False
